molecular target: Shikimate kinase (Helicobacter pylori (strain ATCC 700392 / 26695) (Campylobacterpylori), UniProt P56073); experiment: Binding affinity to Helicobacter pylori SS1 recombinant shikimate kinase expressed in BL21 (DE3) cells by SPR assay
Sequence (P56073 whole entry): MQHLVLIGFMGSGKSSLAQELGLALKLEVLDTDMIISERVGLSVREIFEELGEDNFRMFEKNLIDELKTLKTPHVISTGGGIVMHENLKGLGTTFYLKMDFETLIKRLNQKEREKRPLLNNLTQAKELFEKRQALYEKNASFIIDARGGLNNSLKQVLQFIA
outcome measure: Kd (µM)

line_notation=O=C1NN(c2ccc(Cl)c(Cl)c2)C(=O)/C1=C\c1ccc(-c2ccc(Br)cc2C(=O)O)o1 reading_unit=µM observed_result=3.74
line_notation=COc1cc(C=O)ccc1OCc1ccccc1COc1ccc(/C=C2/SC(=S)NC2=O)cc1OC reading_unit=µM observed_result=4.39

----------
Recorded pIC50 values for a group of compounds are listed next.
molecular target: Shikimate kinase (Helicobacter pylori (strain ATCC 700392 / 26695) (Campylobacterpylori), UniProt P56073); test: Inhibition of Helicobacter pylori SS1 recombinant shikimate kinase expressed in BL21 (DE3) cells by double coupled assay
pIC50: −log10 of the molar value.
outcome measure: pIC50

line_notation=O=C1NN(c2ccc(Cl)c(Cl)c2)C(=O)/C1=C\c1ccc(-c2ccc(Br)cc2C(=O)O)o1 observed_result=5.19
line_notation=COc1cc(C=O)ccc1OCc1ccccc1COc1ccc(/C=C2/SC(=S)NC2=O)cc1OC observed_result=5.26
